meta.source: PubChem BioAssay

- TEST DESCRIPTION: HUVEC growth inhibition – cell-based, human, primary screen (AID 575);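 note: 100% = median of untreated cell wells with 0.1% DMSO on each plate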
- CONDITION DESCRIPTION: HUVEC proliferation, CellTiter-Glo luminescence, 72 h; at 10 µM; stronger effect = lower value
Label Condition met when viability is strictly below 90%; at or above that, label Condition not met.

Would you please look over these solved cases?
COc1ccc(S(=O)(=O)N2CCCC(C(=O)NCc3ccccn3)C2)cc1 (stereo unspecified): Condition not met
CCOC(=O)Cc1cc(=O)n2[nH]c(C)c(-c3ccc(OC)cc3)c2n1: Condition met
CCOC(=O)N1CCC(n2c(=S)[nH]c3cc(OC)c(OC)cc3c2=O)CC1: Condition met
C/C(N)=C(/C#N)C(=O)COC(=O)c1cc(S(=O)(=O)N2CCCCC2)ccc1C: Condition met

**Q:** Record COc1ccccc1N1CCN(C(=O)c2ccc3nc(-c4ccco4)c(-c4ccco4)nc3c2)CC1 : is its viability strictly below 90%?
**A:** Condition met

* * *

Listed below: inhibition values for each entry.
- TEST DESCRIPTION: 384-well plate pilot, post-Golgi transport modulator project, inhibition of yeast transport mutant growth (AID 636)
- CONDITION DESCRIPTION: absorbance 615 nm, about 18 h, stronger effect = higher value
Form entry: value (%) — number only.

These solved cases illustrate the format of a correct answer.
CC(C)C(C(=O)Nc1ccc2c(c1)OCO2)N1C(=O)c2ccccc2C1=O (stereo not drawn): -4.03
COc1ccc2oc(C)c(C(=O)Cn3ccnc3)c2c1: 1.69
COc1cccc(-c2cc(C(F)(F)F)n3nc(N)nc3n2)c1: -0.53
CO/C([O-])=N/c1c[n+](-c2ccc(C)cc2)no1: -6.49
CCOC(=O)c1[nH]c(CSc2nnc(-c3ccc(OC)cc3)o2)c(C(=O)OCC)c1C: -3.24
Cc1csc(OCc2ccc(C#N)cc2)n1: -5.32
C=CCc1ccccc1OCC(O)CN1CCN(Cc2ccc3c(c2)OCO3)CC1 (stereo not drawn): 59.1

Now, please, on to the next compound.
**Q:** Looking for the measured inhibition of COc1ccc(OC)c(NC(=O)C23CCC(C)(C(=O)C2)C3(C)C)c1 (stereo not drawn) , can you help?
**A:** -6.3

* * *

- TEST DESCRIPTION: growth inhibitors of H69AR lung tumor, primary screen, human, duplicate replicates (AID 580);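 note: 100% = mean luminescence of untreated wells and 0% = no signal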
- CONDITION DESCRIPTION: H69AR lung tumor cells viability, ATP luminescence, 72 h; at 10 µM; stronger effect = lower value
Criterion: viability strictly under 90%. Met: condition met. Not met: condition not met.

COc1cc(Nc2cc(C)nc3ncnn23)cc(OC)c1OC: condition not met
Cc1ccccc1C(=O)N1CCC(C(=O)Nc2ccc(S(=O)(=O)N3CCCC3)cc2)CC1: condition met
CCCCOC(=O)CSc1nc2c(cc1C#N)C(=O)CC(C)(C)C2: condition met
O=C(Nc1ccccc1-c1ccccc1)NC1CCN(C(=O)N2CCOCC2)CC1: condition not met
CCC(=O)Nc1ccc(NC(=O)c2ccccn2)cn1: condition not met

**Q:** Is the reported viability for Cc1nn(-c2ccccc2)c2[nH]c(C(F)(F)F)cc(=O)c12 strictly below 90%?
**A:** condition not met

**Q:** Answer whether the molecule Cc1cc(NC(=O)CSc2nc(C3CCCCC3)nc3ccccc23)no1 has viability strictly less than 90%
**A:** condition met

**Q:** Lab note: viability threshold 90%. Does this molecule come in strictly under it? CCN(C(C)=O)c1nnc(CSc2nc3ccccc3s2)s1
**A:** condition not met

**Q:** State whether 90% exceeds viability recorded for C=CCn1c(SCC#N)nc2c(c1=O)C(C)(C)Cc1ccccc1-2 .
**A:** condition met

**Q:** Quick check: viability of O=C(CSc1nc2ccccc2nc1SCC(=O)N1CCOCC1)N1CCOCC1 under 90%?
**A:** condition not met

* * *

- TEST DESCRIPTION: reducers of endogenous Her2 protein level, primary screen, SKBR3 breast tumor cells, AlphaScreen, ATP viability (AID 461);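 note: percent of carrier control wells set as 100% viability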
- CONDITION DESCRIPTION: 18-24 h, measured here: SKBR3 viability, ATP luminescence, at 10 µM
PROPERTY LABEL: viability (%)
// units = %; emit number, no label

Use the examples below as a reference point.
O=C1c2ccccc2C(=O)N1CCCn1nnc(-c2ccc(N3CCOCC3)cc2)n1: 110
Cc1ccc(S(=O)(=O)Cn2nnnc2CN(Cc2ccco2)Cc2cccs2)cc1: 91.5
O=C(CN1CCC(c2nc3ccccc3s2)CC1)NCc1cccs1: 110
COc1ccccc1-c1nc(SCc2ccccn2)n[nH]1: 104
COC(=O)c1cc(OC)c(OC)cc1NC(=O)CC1CCCCC1: 104

**Q:** viability lookup needed for CN(C1CCCCC1)S(=O)(=O)c1ccc(S(=O)(=O)N2CCCC2)cc1 , thanks.
**A:** 84.5

**Q:** Fill blank: measured viability of the compound Cc1ccc(S(=O)(=O)c2cc3c(=O)n4ccccc4nc3n(CC3CCCO3)c2=N)cc1C (configuration not stated) is ____.
**A:** 83

**Q:** Dear colleague, I am looking for the recorded viability of the following compound: CCC(Sc1nc2n[nH]c(C)c2c(=N)n1-c1cc(Cl)ccc1C)C(=O)N1CCOCC1 (configuration not stated)
**A:** 92.5

**Q:** Recorded viability of O=P(O)(O)C(O)C(F)(F)C(F)(F)C(F)(F)C(F)F (configuration not stated) , please.
**A:** 108

**Q:** # input compound: NC(=O)C1(N2CCCCC2)CCN(CC(=O)Nc2cc(Cl)ccc2Cl)CC1 ; wanted: its viability
**A:** 105

* * *

- TEST DESCRIPTION: HUVEC growth inhibition – cell-based, human, primary screen (AID 575);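 note: 100% = median of untreated cell wells with 0.1% DMSO on each plate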
- CONDITION DESCRIPTION: HUVEC proliferation, CellTiter-Glo luminescence, 72 h; at 10 µM; stronger effect = lower value
PROPERTY LABEL: viability (%)
# value in %; strip the unit string

Use these answered entries as a reference point.
CCCCOc1ccc(C(=O)Nc2ccc(N3CCN(C(C)=O)CC3)cc2)cc1: 88.8
CCCCc1oc2ccccc2c1C(=O)c1cc(I)c(OCCN(CC)CC)c(I)c1: 2.45
c1cc(C(c2nnnn2C2CCCC2)N2CCOCC2)ccn1 (centres undefined): 104

**Q:** Report viability for Cc1cc(=O)oc2ccc(OCC(=O)N(Cc3ccc(F)cc3)Cc3ccco3)cc12 please.
**A:** 50.9

* * *

- TEST DESCRIPTION: SK-BR-3 cell growth inhibitors, pilot screen, 24 h, human (AID 572);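 note: compound exposure lasted between 18 and 24 h rather than exactly 24 h; 100% = carrier-treated control wells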
- CONDITION DESCRIPTION: SK-BR-3 viability, CellTiter-Glo luminescence, at 10 µM, stronger effect = lower value
The following compounds are shown together with reported viability values.
Lab book: enter the figure in %, no units written.

Answered cases to consult:
CCOC(=O)N1CCC(NC(=O)CCC(=O)N2CC(C)Oc3ccc(Cl)cc32)CC1 (stereo unspecified): 104
CCc1ccccc1NC(=O)CSC1=C(C#N)C(c2ccc(O)c(OC)c2)C2=C(CCCC2=O)N1 (stereo unspecified): 112
CCOC(=O)N1CCC(=C2c3ccc(Cl)cc3CCc3cccnc32)CC1: 116
O=C(Nc1cccc2c1CCCC2)C1CCN(c2nnnn2-c2ccccc2)CC1: 92
Cc1cccc(N2CCN(C(=O)c3ccc(NS(=O)(=O)c4c(C)noc4C)cc3)CC2)c1C: 98

Now turn to the next compound.
**Q:** For COc1ccccc1OCc1ccc(C(=O)N2CCN(C(=O)c3ccco3)CC2)cc1 , what is its reported viability?
**A:** 116

* * *

- TEST DESCRIPTION: reversal of MRP1-mediated doxorubicin resistance, pilot screen, H69AR cells, doxorubicin co-treatment (AID 601)
- CONDITION DESCRIPTION: H69AR cells, CellTiter-Glo, 72 h; compound alone cytotoxicity; at 10 µM
PROPERTY LABEL: viability (%)
Expressed in %, but write only the number.

The cases that follow already have their viability on record.
Cc1cc(C)n(C(=O)C23CC4CC(CC(C4)C2)C3)n1: 99.3
CCc1nnc(NC(=O)CSc2nnc(Cc3ccccc3)n2-c2ccc(OC)cc2)s1: 84.6

# context switch: different molecule, same viability
**Q:** Returns the measured viability for the input molecule. Input: CCOC(=O)c1c2n(c3ccc(O)cc13)CCCCC2
**A:** 82.4

* * *

Measured viability values are reported for all entries that follow.
- TEST DESCRIPTION: reversal of MRP1-mediated doxorubicin resistance, pilot screen, H69AR cells, doxorubicin co-treatment (AID 601)
- CONDITION DESCRIPTION: H69AR cells, CellTiter-Glo, 72 h; compound alone cytotoxicity; at 10 µM
Entry rule: numbers only, all in %.

Consider the reported viability for these compounds:
CCOCCCn1c(=NC(C)=O)c(C(=O)OCC)cc2c(=O)n3ccccc3nc21: 90.5
N=c1sc2ccccc2n1-c1ccccc1: 89
COC(=O)c1ccccc1NC(=O)C12CCC(C)(C(=O)O1)C2(C)C (centres undefined): 90.5

**Q:** Any idea what viability was measured for CC1(C)CC(=O)C2=C(C1)Nc1nc(SCCN3CCOCC3)[nH]c(=O)c1C2c1cccs1 (centres undefined) ?
**A:** 89.9
